Data credit: PubChem BioAssay (NCI)

System: SW-620 colon
Assay explanation: NCI-60 one-dose screen, 48 h
Reported conditions: 10 µM unless noted
Compounds without any hit were thinned out: in the full panel of roughly 83,000, 20% have a hit. Calls of active or inactive are those of the source. Rule for the calls: active = growth percent below 10; inactive = the rest.
Outcomes: true (1) for active, false (0) for inactive

Molecule	Group
CN1CCN(c2cc(Nc3cc(C4CC4)[nH]n3)nc(Nc3ccc(CC(=O)NCc4cccc(F)c4)cc3)n2)CC1	false (0)
CC1(C)CC(=O)C2=C(C1)N(c1ccc(OC(F)(F)F)cc1)C(N)=C(C#N)C2c1ccc(Br)cc1F (centres undefined)	false (0)
C=CCc1c(O)c(C(=O)/C=C/c2ccccc2)c(OC)c2ccoc12	false (0)
COc1ccc(C(=O)/C=C/c2c(C(F)(F)F)nc3ccccn23)cc1OC	true (1)
COC(=O)c1c(C)nc(C)c2c1C(=O)C(Br)=C(NCc1ccccc1)C2=O	false (0)
N#Cc1nc(-c2ccc(F)cc2)oc1S(=O)(=O)N1CCOCC1	true (1)
COc1cc2c(cc1OCCCN1CCN(CCCOc3cc4c(cc3OC)C(=O)N3CC(F)(F)C[C@H]3C=N4)CC1)N=C[C@@H]1CC(F)(F)CN1C2=O	true (1)
CS(=O)(=O)Nc1cc(-c2ccc3ncnc(Nc4ccc5c(cnn5Cc5ccc(F)cc5)c4)c3c2)cnc1Cl	false (0)
COc1cccc(CNc2ccc3ncnc(Nc4ccc(F)c(Cl)c4)c3c2)c1	false (0)
